- target-desc: human σ1 receptor (Homo sapiens)
- Construct: expressed in transfected cells; host or cells: HEK-293
- Sequence (Q99720 whole entry): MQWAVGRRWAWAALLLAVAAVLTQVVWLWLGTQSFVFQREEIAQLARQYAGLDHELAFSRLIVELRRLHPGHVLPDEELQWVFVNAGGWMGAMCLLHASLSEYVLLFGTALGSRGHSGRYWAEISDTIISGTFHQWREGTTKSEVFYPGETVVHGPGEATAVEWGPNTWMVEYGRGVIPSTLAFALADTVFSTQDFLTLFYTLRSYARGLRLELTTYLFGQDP
- test: Human σ1 receptor radioligand assay
- conditions: transfected HEK-293 membranes, 5 nM [3H](+)-pentazocine, 37° C. 120 minutes; + may also stand for 1-50% inhibition at 1 or 10 μM; read-out: Binding σ-1 Ki
pKi: −log10 of the molar value.
Consider the following compounds; for each one, report its pKi.

// known answers, use as guide
CN(Cc1ccccc1)[C@H]1CC[C@@H](NS(=O)(=O)c2ccc(N3CCOCC3)nc2)CC1 [Example 19]
< 6.00
COc1ccc(CNC[C@H]2CCCN(S(=O)(=O)c3ccc(N4CCOCC4)nc3)C2)cn1 [Example 33]
< 6.00

# next compound below
(Q) Give measured pKi for CN(CC(C)(C)C)C1CCN(S(=O)(=O)c2ccc(N3CCOC3=O)nc2)CC1 [Example 124] (human σ1 receptor (Homo sapiens)).
(A) 6.30 to 7.00
